Here is a set of compounds with reported IC50 for CD73 (Homo sapiens (Human), UniProt P21589), compiled from the literature.

[[record]]
compound = "CN(c1nc(Cl)nc2c1cnn2[C@@H]1O[C@H](COC(=O)CP(=O)(O)O)[C@@H](O)[C@H]1O)[C@H]1CCc2ccccc21"
tested_system = "CD73 (Homo sapiens (Human), UniProt P21589)"
val = "0.5 to 1 µM"

[[record]]
compound = "CC(C)(C)OC(=O)NC1(C(=O)O)CCN(c2cn[nH]c(=O)c2Cl)C1 (stereo not shown)"
tested_system = "CD73 (Homo sapiens (Human), UniProt P21589)"
val = "100 to 1000 µM"

[[record]]
compound = "O=P(O)(O)C(CO)OC[C@H]1O[C@@H](n2ccc3c(NC4CCCC4)nc(Cl)nc32)[C@H](O)[C@@H]1O (stereo partly shown)"
tested_system = "CD73 (Homo sapiens (Human), UniProt P21589)"
val = "≤ 0.1 µM"


Pending compound:
Lab note: need IC50 with CD73 (Homo sapiens (Human), UniProt P21589) for entry `O=P(O)(O)COC[C@H]1O[C@@H](n2ncc3c(NC4CCCCC4)nc(Cl)nc32)[C@H](O)[C@@H]1O` , please look it up.
≤ 0.5 µM

---

pIC50: −log10 of the molar value.
Here is a set of molecules with reported pIC50 for CD73 (Homo sapiens (Human)), compiled from the literature.

[[record]]
molecule = "O=C(N[C@@H]1CCC[C@H]1O)O[C@@H]1CCN(c2cnn(CCO)c(=O)c2Cl)C1"
observable = "pIC50"
val = "5.00 to 9.00"


Need pIC50 of `CCOC(=O)[C@@H]1CCC[C@H]1NC(=O)O[C@@H]1CCN(c2cn[nH]c(=O)c2Cl)C1` , thanks.
5.00 to 9.00

Need pIC50 of CC(CO)(OC[C@H]1O[C@@H](n2ccc3c(NC4CCCC4)nc(Cl)nc32)[C@H](O)[C@@H]1O)P(=O)(O)O (some centres unmarked) , thanks.
≥ 7.00

Need pIC50 of O=P(O)(O)C(CO)(CO)OC[C@H]1O[C@@H](n2ncc3c(N[C@@H]4CCCc5ccccc54)nc(Cl)nc32)[C@H](O)[C@@H]1O (racemic) , thanks.
≥ 7.00

Need pIC50 of `C[C@H](O)[C@H](OC[C@H]1O[C@@H](n2ncc3c(NC4CCCC4)nc(Cl)nc32)[C@H](O)[C@@H]1O)P(=O)(O)O` , thanks.
≥ 7.00

Need pIC50 of `O=P(O)(O)COC[C@H]1O[C@@H](n2ncc3c(NCc4ncccn4)nc(Cl)nc32)[C@H](O)[C@@H]1O` , thanks.
6.00 to 6.30

Need pIC50 of `O=C(NC1CCCCC1)N[C@@H]1CCN(c2cn[nH]c(=O)c2Cl)C1` , thanks.
5.00 to 9.00

Need pIC50 of `Cc1noc(C)c1CC(=O)N1CCC(NC(=O)O[C@@H]2CCN(c3cn[nH]c(=O)c3Cl)C2)CC1` , thanks.
5.00 to 9.00

Need pIC50 of COC[C@@](Cc1nn[nH]n1)(OC[C@H]1O[C@@H](n2ncc3c(NC4CCCC4)nc(Cl)nc32)[C@H](O)[C@@H]1O)P(=O)(O)O (racemic) , thanks.
≥ 7.00

Need pIC50 of `COC[C@](Cc1nn[nH]n1)(OC[C@H]1O[C@@H](n2ncc3c(NC(C)C)nc(Cl)nc32)[C@H](O)[C@@H]1O)P(=O)(O)O` , thanks.
≥ 8.00

Need pIC50 of O=P(O)(O)C(CO)(CCO)OC[C@H]1O[C@@H](n2ncc3c(NC4CCCC4)nc(Br)nc32)[C@H](O)[C@@H]1O (some centres unmarked) , thanks.
≥ 7.00

Need pIC50 of `O=C(NC1(CO)CCCC1)O[C@@H]1CCN(c2cn[nH]c(=O)c2Cl)C1` , thanks.
5.00 to 9.00

Need pIC50 of `O=C(NCC(F)(F)F)O[C@@H]1CCN(c2cn[nH]c(=O)c2Cl)C1` , thanks.
5.00 to 9.00

Need pIC50 of `CCOC(=O)OCOP(=O)(CC(=O)N(C)C[C@H]1O[C@@H](n2cnc3c(NC4CCCC4)nc(Cl)nc32)[C@H](O)[C@@H]1O)OCOC(=O)OCC` , thanks.
< 6.00

---

Here is a set of compounds with reported IC50 for CD73 (Homo sapiens (Human)), compiled from the literature.

[[record]]
compound = "O=P(O)(O)COC[C@H]1O[C@@H](n2ncc3c(NCc4cccc(C(F)(F)F)c4)nc(Cl)nc32)[C@H](O)[C@@H]1O"
val = "≤ 500 nM"

[[record]]
compound = "O=C(NC1CCCCC1)O[C@@H]1CCN(c2cnn(-c3cccc(C(=O)O)c3)c(=O)c2Cl)C1"
val = "10000 to 100000 nM"

[[record]]
compound = "CCOC(=O)N1CCC(NC(=O)O[C@@H]2CCN(c3cn[nH]c(=O)c3Cl)C2)CC1"
val = "1 to 10000 nM"

[[record]]
compound = "O=C(NC1CCN(C(=O)c2ccc(Cl)nc2)CC1)O[C@@H]1CCN(c2cn[nH]c(=O)c2Cl)C1"
val = "1 to 10000 nM"

[[record]]
compound = "O=C(N[C@H]1CC[C@@H](O)C1)O[C@@H]1CCN(c2cn[nH]c(=O)c2Cl)C1"
val = "1 to 10000 nM"


Lab note: need IC50 with CD73 (Homo sapiens (Human)) for entry `Cc1c(N2CC[C@@H](NC(=O)OC(C)(C)C)C2)cn[nH]c1=O` , please look it up.
1 to 10000 nM

Lab note: need IC50 with CD73 (Homo sapiens (Human)) for entry `O=C(N[C@H]1CC[C@H](NC(=O)c2ccccn2)CC1)O[C@@H]1CCN(c2cn[nH]c(=O)c2Cl)C1` , please look it up.
1 to 10000 nM

Lab note: need IC50 with CD73 (Homo sapiens (Human)) for entry `CCN(C[C@H]1O[C@@H](n2cnc3c(N(C)C4CCCC4)nc(Cl)nc32)[C@H](O)[C@@H]1O)C(=O)CP(=O)(O)O` , please look it up.
< 100 nM

Lab note: need IC50 with CD73 (Homo sapiens (Human)) for entry `O=P(O)(O)COC[C@H]1O[C@@H](n2ncc3c(NC4CC(F)(F)C4)nc(Cl)nc32)[C@H](O)[C@@H]1O` , please look it up.
≤ 500 nM

---

Here is a set of molecules with reported IC50 for CD73 (Homo sapiens (Human)), compiled from the literature.

[[record]]
molecule = "O=P(O)(O)CS(=O)(=O)C[C@H]1O[C@@H](n2ncc3c(NCC4CC4)nc(Cl)nc32)[C@H](O)[C@@H]1O"
tested_system = "CD73 (Homo sapiens (Human))"
observable = "IC50"
val = "≤ 500 nM"

[[record]]
molecule = "O=C(NC1CC1)O[C@@H]1CCN(c2cn[nH]c(=O)c2Cl)C1"
tested_system = "CD73 (Homo sapiens (Human))"
observable = "IC50"
val = "1 to 10000 nM"

[[record]]
molecule = "O=P(O)(O)[C@@](CO)(COCc1nn[nH]n1)OC[C@H]1O[C@@H](c2ccc3c(NC4CCC4)nc(Cl)nn23)[C@H](O)[C@@H]1O"
tested_system = "CD73 (Homo sapiens (Human))"
observable = "IC50"
val = "≤ 0.5 nM"

[[record]]
molecule = "O=P(O)(O)[C@](CO)(Cc1nn[nH]n1)OC[C@H]1O[C@@H](n2ncc3c(NCC4CCC4)nc(Cl)nc32)[C@H](O)[C@@H]1O"
tested_system = "CD73 (Homo sapiens (Human))"
observable = "IC50"
val = "≤ 10 nM"

[[record]]
molecule = "CC(Cc1nn[nH]n1)(OC[C@H]1O[C@@H](n2ncc3c(NC4CCCC4)nc(Cl)nc32)[C@H](O)[C@@H]1O)P(=O)(O)O (stereo partly shown)"
tested_system = "CD73 (Homo sapiens (Human))"
observable = "IC50"
val = "≤ 10 nM"

[[record]]
molecule = "CC(C)OC[C@](CO)(OC[C@H]1O[C@@H](n2ncc3c(NC4CCCC4)nc(Cl)nc32)[C@H](O)[C@@H]1O)P(=O)(O)O"
tested_system = "CD73 (Homo sapiens (Human))"
observable = "IC50"
val = "≤ 100 nM"


Pending molecule:
Lab note: need IC50 with CD73 (Homo sapiens (Human)) for entry `Cc1csc(C2(NC(=O)O[C@@H]3CCN(c4cn[nH]c(=O)c4Cl)C3)CCCC2)n1` , please look it up.
1 to 10000 nM

---

Here is a set of compounds with reported IC50 for CD73 (Homo sapiens (Human), UniProt P21589), compiled from the literature.

Some entries whose results are on file:
[[record]]
compound = "O=C(NC1CCN(C(=O)c2ccccc2F)CC1)O[C@@H]1CCN(c2cn[nH]c(=O)c2Cl)C1"
val = "0.001 to 10 µM"

[[record]]
compound = "C[C@@]1(c2ccc3c(NC4CCCC4)nc(Cl)nn23)O[C@H](CO[C@](CO)(COCc2nn[nH]n2)P(=O)(O)O)[C@@H](O)[C@H]1O"
val = "0.1 to 1 µM"


Pending compound:
Need IC50 of O=P(O)(O)C(CO)(CO)OC[C@H]1O[C@@H](n2ncc3c(N[C@@H]4CCc5cc(F)ccc54)nc(Cl)nc32)[C@H](O)[C@@H]1O (racemic) , thanks.
≤ 0.1 µM
